target: Adenosine receptor A2b (Homo sapiens) (UniProt P29275); assay: Displacement of [3H]DPCPX from recombinant human adenosine A2B receptor expressed in HEK293 cells at 0.1 uM; type: cell-based
Sequence (P29275 whole entry): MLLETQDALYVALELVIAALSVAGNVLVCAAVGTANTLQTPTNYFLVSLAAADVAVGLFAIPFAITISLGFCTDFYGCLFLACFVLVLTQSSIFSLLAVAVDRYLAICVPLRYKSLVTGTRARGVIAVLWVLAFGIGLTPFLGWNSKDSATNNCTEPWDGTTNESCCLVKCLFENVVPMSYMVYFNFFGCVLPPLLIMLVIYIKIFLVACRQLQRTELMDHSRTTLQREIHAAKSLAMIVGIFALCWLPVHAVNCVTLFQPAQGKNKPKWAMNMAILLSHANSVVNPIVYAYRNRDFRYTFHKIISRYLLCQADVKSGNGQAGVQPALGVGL
experimental_endpoint: inhibition
Number first, unit second: that is the form wanted.

# count of solved cases: 2
>>> df
                                   molecule                         system_under_test  result
0  CCCn1c(=O)c2[nH]c(-c3ccc(OC(C)C(=O)Nc4ccc(F)cc4)cc3)cc2n(CCC)c1=O (stereo not drawn)  Adenosine receptor A2b (Homo sapiens) (UniProt P29275)     88%
1  CCCn1c(=O)c2[nH]c(-c3ccc(OCC(=O)Nc4ccccn4)cc3)cc2n(CCC)c1=O  Adenosine receptor A2b (Homo sapiens) (UniProt P29275)     83%

Exam item: Bench note: what inhibition did COc1cc(OCC(=O)Nc2ccc(Br)cc2)ccc1-c1cc2c([nH]1)c(=O)n(C)c(=O)n2C show?
Marked response: 83%
